System: replicons that contain HCV genotype-1a patient-derived NS3 protease domains in Lunet Huh7 cells
measurement_notes: Phenotypic replicon assay (transient replicon, firefly luciferase reporter), genotype-1a patient-derived NS3 protease
Assay type: cell-based
conditions: Hepatitis C virus, Huh-7, read-out: Mean IC50, GT-1a patient sample RO-193
As shown below, each of these compounds has a reported IC50 value.
Give a bare numeral; the unit nM is implied.

CCC[C@H](NC(=O)[C@@H]1[C@H]2CCC[C@H]2CN1C(=O)[C@@H](NC(=O)[C@@H](NC(=O)c1cnccn1)C1CCCCC1)C(C)(C)C)C(=O)C(=O)NC1CC1 = 0.132

IN: So what's the measured IC50 for this one? COc1ccc2c(O[C@@H]3C[C@H]4C(=O)N[C@]5(C(=O)O)C[C@H]5/C=C\CCCCC[C@H](NC(=O)OC5CCCC5)C(=O)N4C3)cc(-c3csc(NC(C)C)n3)nc2c1
OUT: 0.298
